# Test system: LNCaP-Vancouver prostate cells
# assay: In vitro LNCaP Vancouver prostate cell proliferation assay in lipid reduced medium
# Assay type: cell-based
# measurementConditions: read-out: pIC50 LNCaP_Vancouver prostate cell (converted)
As shown below, each of these molecules has a reported log10 IC50 value.
measurementKind: log10 IC50 (log10 of the value in nM)

| molecule | measurementKind | readoutNumber |
| --- | --- | --- |
| O=C(C1CC1)N1CC[C@@H](CN2C(=O)C3(CC3)N=C2c2ccc(-c3cccc4[nH]ncc34)cc2)C1 [compound 302] | log10 IC50 | 2.64 |
| Cc1cc(-c2ccc(C#N)cc2F)ccc1C1=NC2(CC2)C(=O)N1CC1CN(C(=O)C2(C)CC2)C1 [compound 580] | log10 IC50 | 2.88 |
| Cc1cc(C2=NC3(CC3)C(=O)N2C[C@@H]2CCN(C(=O)C3CC3)C2)ccc1-c1ccc2oc(C#N)cc2c1 [compound 476] | log10 IC50 | 3.57 |
| Cc1cc(-c2ccc(-c3cnn(C4CC4)c3)cc2)ccc1C1=NC2(CC2)C(=O)N1CC1CN(C(=O)C2CC2)C1 [compound 326] | log10 IC50 | 2.23 |
| O=C(C1CC1)N1CC(CN2C(=O)C3(CC3)N=C2c2ccc(-c3nc4cc(F)c(F)cc4s3)cc2F)C1 [compound 639] | log10 IC50 | 3.37 |
| CC(C)n1cc(-c2ccc(-c3ccc(C4=NC5(CC5)C(=O)N4CC4CN(C(=O)C5CC5)C4)c(F)c3)cc2)cn1 [compound 327] | log10 IC50 | 2.14 |
| COCCN1CCC2(CC1)N=C(c1ccc(-c3ccc4c(cnn4C)c3)cc1)N(C[C@@H]1CCN(C(=O)C3CC3)C1)C2=O [compound 750] | log10 IC50 | 3.50 |
| O=C(C1CC1)N1CC[C@@H](CN2C(=O)C3(CC3)N=C2c2ccc(-c3cccc4[nH]ncc34)s2)C1 [compound 427] | log10 IC50 | 3.42 |
| Cc1cc(-c2ccc3oc(C)c(C)c3c2)ccc1C1=NC2(CC2)C(=O)N1CC1CN(C(=O)C2CC2)C1 [compound 398] | log10 IC50 | 3.37 |
| O=C([C@H]1CCCO1)N1CC[C@@H](CN2C(=O)C3(CCOCC3)N=C2c2ccc(-c3ccc4occc4c3)cc2)C1 [compound 669] | log10 IC50 | 3.45 |
| O=C(C1CC1)N1CC[C@@H](CN2C(=O)C3(CCOC3)N=C2c2ccc(-c3ccc4cccnc4c3)cc2)C1 (some centres unmarked) [compound 680] | log10 IC50 | 2.53 |
| Cc1ccc2cc(-c3ccc(C4=NC5(CC5)C(=O)N4CC4CN(C(=O)C5(C)CC5)C4)c(C)c3)ccc2c1 [compound 334] | log10 IC50 | 2.21 |
| O=C(C1CC1)N1CC(CN2C(=O)C3(CC3)N=C2c2ccc(-c3ccc4cc(Cl)ccc4c3)cc2F)C1 [compound 320] | log10 IC50 | 2.40 |
